# Assay target: RIPK2 enzyme (Homo sapiens)
# Construct: purchased Carna 09-128
# Sequence (O43353 1-299 limits assumed): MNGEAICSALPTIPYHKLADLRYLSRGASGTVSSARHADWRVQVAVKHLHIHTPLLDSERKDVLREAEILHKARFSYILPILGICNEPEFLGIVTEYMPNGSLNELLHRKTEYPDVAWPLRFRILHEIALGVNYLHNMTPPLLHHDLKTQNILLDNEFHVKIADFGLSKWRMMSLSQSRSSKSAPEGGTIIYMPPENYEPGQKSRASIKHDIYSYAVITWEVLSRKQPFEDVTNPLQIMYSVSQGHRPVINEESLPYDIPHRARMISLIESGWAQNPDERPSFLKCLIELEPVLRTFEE
# Test description: RIPK2 inhibition (ADP-Glo Kinase Assay)
# Assay type: biochemical
# Conditions: RIPK2 5 nM, ATP 150 μM, MBP substrate, read-out: RIPK2 IC50
Endpoint label: IC50

Take a look at these entries with their results.
{"Molecule": "CC(C)c1ccnc(NC(=O)Cc2ccc(Oc3ncnc4ccc(F)cc34)cc2F)c1 [Compound 22]", "Assay target": "RIPK2 enzyme (Homo sapiens)", "IC50": "23.9 nM"}
{"Molecule": "CNC(=O)c1cc2c(Oc3cc(F)c(CC(=O)Nc4cnn(C(C)(C)C)c4)cc3C)ccnc2cc1Cl [Compound 565]", "Assay target": "RIPK2 enzyme (Homo sapiens)", "IC50": "< 2.5 nM"}
{"Molecule": "Cc1cc(CC(=O)Nc2cnn(C(C)(C)C)c2)c(F)cc1Oc1ccnc2ccc(CN3C[C@@H]4C[C@H]3CN4)cc12 [Compound 420]", "Assay target": "RIPK2 enzyme (Homo sapiens)", "IC50": "< 2.5 nM"}

Please look at the items below and tell me IC50 for each one, in order.
1. CC(C)(C)n1cc(NC(=O)Cc2ccc(Oc3ccnc4ccc(S(C)(=O)=O)cc34)c(C#N)c2)cn1 [Compound 432]
2. Cc1cc(CC(=O)Nc2nnc(C(C)(C)C)s2)c(F)cc1Oc1ccnc2ccc(S(C)(=O)=O)cc12 [Compound 443]
3. CN1CCC(Oc2ccc3nccc(Oc4ccc(CC(=O)Nc5cnn(C(C)(C)C)c5)c(F)c4F)c3c2)CC1 [Compound 166]
4. CCNC(=O)c1ccc2nccc(Oc3cc(F)c(CC(=O)Nc4cnn(C(C)(C)C)c4)cc3C)c2c1 [Compound 363]
5. Cc1cc(Oc2ccnc3ccc(S(C)(=O)=O)cc23)c(C)cc1CC(=O)Nc1cnn(C(C)(C)C)c1 [Compound 446]
6. [2H]C([2H])([2H])NC(=O)c1ccc2nccc(Oc3cc(F)c(CC(=O)Nc4cnn(C(C)(C)C)c4)c(F)c3C)c2c1 (single isomer, unassigned) [Compound 555]
7. Cc1cc(CC(=O)Nc2cnn(C(C)(C)C)c2)ccc1Oc1ccnc2ccc(S(=O)(=O)CC(C)(C)O)cc12 [Compound 309]

output:
1: 2.8 nM; 2: < 2.5 nM; 3: < 2.5 nM; 4: < 2.5 nM; 5: 21.4 nM; 6: < 2.5 nM; 7: < 2.5 nM

Each molecule below has a recorded value; state its IC50.
1. Cc1c(Oc2ccnc3ccc(C(=O)N4C[C@@H](C)O[C@@H](C)C4)cc23)ccc(CC(=O)Nc2cnn(C(C)(C)C)c2)c1F [Compound 384]
2. Cc1cc(CC(=O)Nc2cnn(C(C)(C)C)c2)ccc1Oc1ccnc2cc(OC(F)F)c(S(C)(=O)=O)cc12 [Compound 218]
3. CNCc1nnc(-c2ccc3nccc(Oc4cc(F)c(CC(=O)Nc5cnn(C(C)(C)C)c5)cc4C)c3c2)o1 [Compound 481]
4. CC(C)(C)n1cc(NC(=O)Cc2ccc(Oc3ncnc4ccc(C(=O)N5CCCC5)cc34)cc2F)cn1 [Compound 27]

output:
["< 2.5 nM", "< 2.5 nM", "< 2.5 nM", "19.2 nM"]

====

# System: human NOD2 signaling
# Test description: Inhibition of human NOD2 signaling in HEK-Blue-hNOD2 cells (L18-MDP stimulated, SEAP reporter)
# Assay type: cell-based
# Conditions: Homo sapiens, HEK-Blue hNOD2, HEK-Blue-hNOD2 cells, NOD2 ligand stimulation, SEAP reporter; read-out: hNOD2 IC50
I'd appreciate it if you could supply pIC50 values for the items below.
One number for each entry, as −log10 of the molar value.

Guide cases for pIC50, answers given:
{"Compound": "CN1CCC(Oc2ccc3ncnc(Oc4cnc(CC(=O)Nc5cnn(C(C)(C)C)c5)c(F)c4)c3c2)CC1", "pIC50": 7.66}
{"Compound": "Cc1cc(CC(=O)Nc2cnn(C(C)(C)C)c2)c(F)cc1Oc1ccnc2ccc(-c3nccnc3C)cc12", "pIC50": 8.23}
{"Compound": "CNC(=O)c1ccc2nccc(Oc3cc(F)c(CC(=O)Nc4cnn(C56CC(C5)C6)c4)cc3Cl)c2c1", "pIC50": 8.08}

Required: pIC50, one value per compound below.
1. CC(C)(C)n1cc(NC(=O)Cc2ccc(Oc3ccnc4ccc(C(N)=O)cc34)c(C(F)F)c2)cn1
2. CC(C)(C)n1cc(NC(=O)Cc2ccc(Oc3ccnc4ccc(S(C)(=O)=O)cc34)c(C(F)F)c2)cn1
3. Cc1cc(CC(=O)Nc2cnn(C(C)(C)C)c2)ccc1Oc1ccnc2ccc(S(=N)(=O)C3CCC3)cc12 (single isomer, unassigned)

output:
1. 8.12
2. 8.18
3. 8.77

input: Specify measured pIC50 for `Cc1cc(CC(=O)Nc2cnn(C(C)(C)C)c2)cc(F)c1Oc1ccnc2ccc(C(N)=O)cc12` .
output: 8.68
